Provide the reported EC50 of each item.
- System Under Test: hM4 receptors (Homo sapiens)
- Sequence (P08173 whole entry): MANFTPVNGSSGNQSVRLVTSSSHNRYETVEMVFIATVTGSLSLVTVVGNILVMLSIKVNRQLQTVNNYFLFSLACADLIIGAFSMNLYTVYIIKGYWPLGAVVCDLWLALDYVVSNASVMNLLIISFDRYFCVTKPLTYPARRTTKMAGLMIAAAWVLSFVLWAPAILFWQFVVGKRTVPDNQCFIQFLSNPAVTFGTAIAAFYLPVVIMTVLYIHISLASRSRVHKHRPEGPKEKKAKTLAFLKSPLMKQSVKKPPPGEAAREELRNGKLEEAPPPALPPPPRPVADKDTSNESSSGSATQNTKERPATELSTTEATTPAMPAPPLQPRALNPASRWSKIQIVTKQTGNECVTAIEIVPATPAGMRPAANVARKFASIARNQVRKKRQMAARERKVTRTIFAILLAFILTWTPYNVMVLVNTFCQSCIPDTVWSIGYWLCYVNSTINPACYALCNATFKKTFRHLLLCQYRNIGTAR
- Assay Protocol: Human M4 PAM pERK assay
- Measurement Parameters: CHO cells expressing hM4; EC20 of acetylcholine (10 nM final); TR-FRET

Q) What value of measured EC50 is listed for COc1nc(C#N)nc2c1C(C)N(C(=O)CC1CN(c3ccnc(C4CC4)c3)C1)C2 (single isomer, unassigned) [Compound I-12] ?
A) ≤ 100 nM

Q) Note, next up: COc1cc(N2CC(CC(=O)N3Cc4nc(C#N)nc(OC)c4C3C)C2)cc(C(F)(F)F)n1 (stereo not shown)
A) 100 to 500 nM

Q) Note, next up: COc1nc(C#N)nc2c1C(C)N(C(=O)CC1CN(c3ccnc(C(C)(C)O)c3)C1)C2 (single isomer, unassigned)
A) ≤ 100 nM

Q) Note, next up: COc1nc(C)nc2c1CN(C(=O)CC1CN(c3ccc(C(F)(F)F)nc3)C1)C2
A) ≥ 2000 nM

Q) Note, next up: COc1nc(C)nc2c1C(C)N(C(=O)CC1CN(c3cncnc3)C1)C2 (single isomer, unassigned) [Compound I-60]
A) ≥ 2000 nM

Q) Note, next up: COc1nc(C#N)nc2c1C(C)N(C(=O)CC1CN(c3ccc(C4CC4)c(F)c3)C1)C2 (single isomer, unassigned) [Compound I-22]
A) 100 to 500 nM

Q) Note, next up: COc1nc(C)c2c(n1)CN(C(=O)CC1CN(c3ccnc(C(F)(F)F)c3)C1)C2
A) 100 to 500 nM

----------
- System Under Test: rM4 receptors (Rattus norvegicus)
- Sequence (P08485 whole entry): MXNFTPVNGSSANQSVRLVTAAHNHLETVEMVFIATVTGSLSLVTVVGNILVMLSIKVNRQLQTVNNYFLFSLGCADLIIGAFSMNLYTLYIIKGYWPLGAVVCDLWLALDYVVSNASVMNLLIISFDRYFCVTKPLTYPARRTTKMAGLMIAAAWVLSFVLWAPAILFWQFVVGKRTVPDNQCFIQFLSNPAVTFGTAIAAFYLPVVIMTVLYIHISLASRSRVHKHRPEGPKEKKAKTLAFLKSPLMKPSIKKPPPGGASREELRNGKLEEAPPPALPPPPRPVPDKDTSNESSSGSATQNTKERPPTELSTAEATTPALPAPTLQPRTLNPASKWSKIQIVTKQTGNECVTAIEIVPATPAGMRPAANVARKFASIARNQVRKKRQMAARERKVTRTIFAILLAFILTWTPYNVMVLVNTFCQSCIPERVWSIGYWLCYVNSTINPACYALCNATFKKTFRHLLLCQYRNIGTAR
- Assay Protocol: Rat M4 PAM pERK assay
- Measurement Parameters: CHO cells expressing rM4; EC20 of acetylcholine (10 nM final); TR-FRET
pEC50: −log10 of the molar value.
Provide the reported pEC50 of each item.

Q) What pEC50 appears in the records for this molecule with rM4 receptors (Rattus norvegicus)? COc1nc(C#N)nc2c1C(C)N(C(=O)CC1CN(c3ccc(C4CC4)c(F)c3)C1)C2 (single isomer, unassigned) [Compound I-22]
A) 6.30 to 7.00

Q) Note, next up: COc1nc(C#N)nc2c1C(C)N(C(=O)CC1CN(c3cncnc3)C1)C2 (single isomer, unassigned) [Compound I-26]
A) ≤ 5.70

Q) Note, next up: COc1nc(C)nc2c1C(C)N(C(=O)CC1CN(c3cccc(C#N)c3)C1)C2 (single isomer, unassigned) [Compound I-55]
A) 5.70 to 6.30

Q) Note, next up: COc1nc(C#N)nc2c1C(C)N(C(=O)CC1CN(c3ccnc(C4CC4)c3)C1)C2 (single isomer, unassigned) [Compound I-11]
A) ≤ 5.70

Q) Note, next up: COc1nc(C#N)nc2c1C(C)N(C(=O)CC1CN(c3cc(F)cc(F)c3)C1)C2 (single isomer, unassigned) [Compound I-10]
A) ≤ 5.70

Q) Note, next up: COc1nc(C#N)nc2c1C(C)N(C(=O)CC1CN(c3ccnc(C(F)(F)F)c3)C1C)C2 (single isomer, unassigned) [Compound I-39]
A) 5.70 to 6.30

Q) Note, next up: COc1nc(C#N)nc2c1CN(C(=O)CC1CN(c3ccnc(C(F)(F)F)c3)C1)C2C (single isomer, unassigned) [Compound I-35]
A) 5.70 to 6.30

Q) Note, next up: COc1nc(C)nc2c1C(C)N(C(=O)CC1CN(c3cncnc3)C1)C2 (single isomer, unassigned) [Compound I-60]
A) ≤ 5.70

Q) Note, next up: COc1nc(C#N)nc2c1C(C)N(C(=O)CC1CN(c3ccnc(C(C)(C)O)c3)C1)C2 (single isomer, unassigned)
A) 6.30 to 7.00

Q) Note, next up: COc1nc(OC(F)F)nc2c1CN(C(=O)CC1CN(c3cccnc3)C1)C2
A) ≤ 5.70

Q) Note, next up: COc1nc(C#N)nc2c1C(C)N(C(=O)CC1CN(c3ccnc(C4CC4)c3)C1)C2 (single isomer, unassigned) [Compound I-12]
A) 5.70 to 6.30

Q) Note, next up: COc1nc(C)nc2c1C(C)N(C(=O)CC1CN(c3ccnc(C(F)(F)F)c3)C1)C2 (single isomer, unassigned) [Compound I-52]
A) 6.30 to 7.00

Q) Note, next up: COc1nc2c(c(OC)n1)C(C)N(C(=O)CC1CN(c3ccc(C#N)cc3)C1)C2 (single isomer, unassigned) [Compound I-66]
A) 6.30 to 7.00

Q) Note, next up: COc1nc2c(c(OC)n1)C(C)N(C(=O)CC1CN(c3ccc(C#N)cc3)C1)C2 (single isomer, unassigned) [Compound I-65]
A) ≤ 5.70

Q) Note, next up: COc1nc(C#N)nc2c1C(C)N(C(=O)CC1CN(c3ccc(C4CC4)c(F)c3)C1)C2 (single isomer, unassigned) [Compound I-21]
A) ≤ 5.70

Q) Note, next up: COc1nc(C#N)nc2c1C(C)N(C(=O)CC1CN(c3ncns3)C1)C2 (single isomer, unassigned) [Compound I-4]
A) ≤ 5.70

Q) Note, next up: COc1nc(C(F)(F)F)nc2c1CN(C(=O)CC1CN(c3cccnc3)C1)C2
A) 5.70 to 6.30

Q) Note, next up: COc1nc(C)c2c(n1)CN(C(=O)CC1CN(c3ccnc(C(F)(F)F)c3)C1)C2
A) ≤ 5.70

Q) Note, next up: COc1nc(C#N)nc2c1C(C)N(C(=O)CC1CN(c3ccncc3F)C1)C2 (single isomer, unassigned)
A) 5.70 to 6.30

Q) Note, next up: COc1nc(C)nc2c1C(C)N(C(=O)CC1CN(c3ccc(C#N)cc3)C1)C2 (single isomer, unassigned) [Compound I-57]
A) ≤ 5.70

Q) Note, next up: COc1nc(C#N)nc2c1C(C)N(C(=O)CC1CN(c3ccnc(C(F)(F)F)c3)C1)C2 (single isomer, unassigned) [Compound I-6]
A) 6.30 to 7.00

Q) Note, next up: COc1nc(C)nc2c1CN(C(=O)CC1CN(c3ncns3)C1)C2
A) 5.70 to 6.30

----------
- System Under Test: UniProt:P08173
- Assay Protocol: Human M4 PAM pERK assay
- Measurement Parameters: CHO cells expressing hM4; EC20 of acetylcholine (10 nM final); TR-FRET
- Description: Chinese hamster ovary (CHO) cells expressing either hM4 or rM4 receptors were frozen in assay ready vials (5×10^6 cells/vial) after bulking-up in culture. The day before an assay, vial(s) were thawed and cells seeded in 384 well white proxiplates at 1000/well for hM4 cells and at 2000/well for rM4 cells, in 10 μL of growth media (Hams/F12 with glutamax and 10% FCS) and incubated overnight at 37° C./5% CO2. […]
Outcome Measure: EC50

Q) What EC50 appears in the records for this compound with UniProt:P08173? COc1cc(N2CC(CC(=O)N3Cc4nc(C#N)nc(OC)c4C3C)C2)ccn1 (single isomer, unassigned) [Compound I-17]
A) ≥ 2000 nM

Q) Note, next up: COc1nc(C)nc2c1C(C)N(C(=O)CC1CN(c3ccnc(C(F)(F)F)c3)C1)C2 (racemic) [Compound I-51]
A) 100 to 500 nM

Q) Note, next up: COc1nc(C)nc2c1C(C)N(C(=O)CC1CN(c3ccnc(C(F)(F)F)c3)C1)C2 (single isomer, unassigned) [Compound I-52]
A) 100 to 500 nM

Q) Note, next up: COc1nc(C)nc2c1CN(C(=O)CC1CN(c3ccnc(C(F)(F)F)c3)C1)C2C (single isomer, unassigned) [Compound I-63]
A) 500 to 2000 nM

Q) Note, next up: COc1nc(C#N)nc2c1C(C)N(C(=O)CC1CN(c3ncns3)C1)C2 (single isomer, unassigned) [Compound I-4]
A) ≥ 2000 nM

Q) Note, next up: COc1nc(C#N)nc2c1C(C)N(C(=O)CC1CN(c3ncns3)C1)C2 (single isomer, unassigned) [Compound I-3]
A) 100 to 500 nM

Q) Note, next up: COc1nc(C#N)nc2c1CN(C(=O)CC1CN(c3ccnc(C(F)(F)F)c3)C1)C2C (single isomer, unassigned) [Compound I-35]
A) 100 to 500 nM

Q) Note, next up: COc1nc2c(c(OC)n1)C(C)N(C(=O)CC1CN(c3ccnc(C(F)(F)F)c3)C1)C2 (racemic) [Compound I-67]
A) 100 to 500 nM

Q) Note, next up: COc1nc2c(c(OC)n1)C(C)N(C(=O)CC1CN(c3ccnc(C(F)(F)F)c3)C1)C2 (single isomer, unassigned) [Compound I-69]
A) ≥ 2000 nM

Q) Note, next up: COc1nc(OC)c2c(n1)C(C)N(C(=O)CC1CN(c3ccnc(C(F)(F)F)c3)C1)C2 (single isomer, unassigned) [Compound I-71]
A) 500 to 2000 nM

Q) Note, next up: COc1nc(C#N)nc2c1C(C)N(C(=O)CC1CN(c3ccnc(OC4CC4)c3)C1)C2 (single isomer, unassigned) [Compound I-13]
A) ≥ 2000 nM

Q) Note, next up: COc1nc2c(c(OC)n1)C(C)N(C(=O)CC1CN(c3ccc(C#N)cc3)C1)C2 (single isomer, unassigned) [Compound I-65]
A) ≥ 2000 nM

Q) Note, next up: COc1nc(Cl)nc2c1CN(C(=O)CC1CN(c3ccnc(C(F)(F)F)c3)C1)C2 [Compound I-1]
A) 100 to 500 nM

Q) Note, next up: COc1nc(C2COC2)nc2c1CN(C(=O)CC1CN(c3ccnc(C(F)(F)F)c3)C1)C2 [Compound I-77]
A) ≥ 2000 nM

Q) Note, next up: COc1nc(C)nc2c1C(C)N(C(=O)CC1CN(c3ccnc(C(F)(F)F)c3)C1)C2 (single isomer, unassigned) [Compound I-53]
A) ≥ 2000 nM
